Test system: K. pneumonia M6
Test: General MIC protocol, Gram negative
Assay type: cell-based
Details: Klebsiella pneumoniae; KP-M6
measured_attribute: MIC (µg/mL)
Answer format: numeric, µg/mL implied, no suffix.

Solved cases below.
CCOC(=O)c1nc(NC(=O)c2cc3cc(NC(=O)c4cc(NC(=O)CCCOc5cc6c(cc5OC)C(=O)N5CCC[C@H]5C=N6)cn4C)ccc3s2)cn1C [PP-B14, reference compound] ... 128
CCN(CC)C(=O)c1cc2cc(NC(=O)c3cc(NC(=O)CCCOc4cc5c(cc4OC)C(=O)N4CCC[C@H]4C=N5)cn3C)ccc2o1 ... 8

Ask: Give measured MIC for COc1cc2c(cc1OCCCC(=O)Nc1cc(C(=O)Nc3ccc4oc(C(=O)N5CCCCC5)cc4c3)n(C)c1)N=C[C@@H]1CCCN1C2=O (K. pneumonia M6).
Result: 8

Ask: Give MIC only, for COc1cc2c(cc1OCCCC(=O)Nc1cc(C(=O)Nc3ccc4oc(C(=O)N(C)C)cc4c3)n(C)c1)N=C[C@@H]1CCCN1C2=O , using K. pneumonia M6 data.
Result: 0.5

Ask: Please report the measured MIC for COc1cc2c(cc1OCCCC(=O)Nc1cc(C(=O)Nc3ccc4sc(C(=O)N5CCCCC5)cc4c3)n(C)c1)N=C[C@@H]1CCCN1C2=O tested on K. pneumonia M6.
Result: 128

###

Reported MIC values, K. pneumonia M6.
Entry rule: numbers only, all in µg/mL.

COc1cc2c(cc1OCCCC(=O)Nc1cc(C(=O)Nc3ccc4sc(C(=O)N5CCOCC5)cc4c3)n(C)c1)N=C[C@@H]1CCCN1C2=O ... 64
CCN(CC)C(=O)c1cc2cc(NC(=O)c3cc(NC(=O)CCCOc4cc5c(cc4OC)C(=O)N4CCC[C@H]4C=N5)cn3C)ccc2s1 ... 8
COC(=O)c1cc(NC(=O)c2cc3cc(NC(=O)c4cc(NC(=O)CCCOc5cc6c(cc5OC)C(=O)N5CCC[C@H]5C=N6)cn4C)ccc3s2)cn1C [PP-B17, reference compound] ... 128

We next turn to a different compound, shown below.
Ask: Please supply the value of reported MIC for the item COc1cc2c(cc1OCCCC(=O)Nc1cc(C(=O)Nc3ccc4sc(C(=O)N(C)C)cc4c3)n(C)c1)N=C[C@@H]1CCCN1C2=O
Result: 1

###

System: methicillin sensitive S. aureus ATTC 9144 (NCTC 6571)
measured_attribute: MIC

Known results for compounds:
COc1cc2c(cc1OCCCC(=O)Nc1cc(C(=O)Nc3ccc4oc(C(=O)N5CCSCC5)cc4c3)n(C)c1)N=C[C@@H]1CCCN1C2=O [PP-A148] ... 0.5 µg/mL
COc1cc2c(cc1OCCCC(=O)Nc1cc(C(=O)Nc3ccc4oc(C(=O)N5CCOCC5)cc4c3)n(C)c1)N=C[C@@H]1CCCN1C2=O [PP-A147] ... < 0.125 µg/mL
COc1cc2c(cc1OCCCC(=O)Nc1cc(C(=O)Nc3ccc4oc(C(=O)N(C)C)cc4c3)n(C)c1)N=C[C@@H]1CCCN1C2=O [PP-A159] ... < 0.125 µg/mL
COC(=O)c1cc(NC(=O)c2cc3cc(NC(=O)c4cc(NC(=O)CCCOc5cc6c(cc5OC)C(=O)N5CCC[C@H]5C=N6)cn4C)ccc3s2)cn1C [PP-B17, reference compound] ... < 0.125 µg/mL
CCN(CC)C(=O)c1cc2cc(NC(=O)c3cc(NC(=O)CCCOc4cc5c(cc4OC)C(=O)N4CCC[C@H]4C=N5)cn3C)ccc2s1 [PP-B28] ... 0.5 µg/mL
COc1cc2c(cc1OCCCC(=O)Nc1cc(C(=O)Nc3ccc4sc(C(=O)N(C)C)cc4c3)n(C)c1)N=C[C@@H]1CCCN1C2=O [KMR-14-33] ... 0.03 µg/mL
CCN(CC)C(=O)c1cc2cc(NC(=O)c3cc(NC(=O)CCCOc4cc5c(cc4OC)C(=O)N4CCC[C@H]4C=N5)cn3C)ccc2o1 [PP-B27] ... < 0.125 µg/mL
COc1cc2c(cc1OCCCC(=O)Nc1cc(C(=O)Nc3ccc4sc(C(=O)N5CCOCC5)cc4c3)n(C)c1)N=C[C@@H]1CCCN1C2=O [PP-B16] ... < 0.125 µg/mL
COc1cc2c(cc1OCCCC(=O)Nc1cc(C(=O)Nc3ccc4sc(C(=O)N5CCSCC5)cc4c3)n(C)c1)N=C[C@@H]1CCCN1C2=O [PP-B15] ... < 0.125 µg/mL
COc1cc2c(cc1OCCCC(=O)Nc1cc(C(=O)Nc3ccc4oc(C(=O)N5CCCCC5)cc4c3)n(C)c1)N=C[C@@H]1CCCN1C2=O [PP-B26] ... < 0.125 µg/mL

Ask: State MIC (methicillin sensitive S. aureus ATTC 9144 (NCTC 6571)) of COc1cc2c(cc1OCCCC(=O)Nc1cc(C(=O)Nc3ccc4sc(C(=O)N5CCCCC5)cc4c3)n(C)c1)N=C[C@@H]1CCCN1C2=O [PP-B22] .
Result: < 0.125 µg/mL

Ask: Provide MIC, system methicillin sensitive S. aureus ATTC 9144 (NCTC 6571), entry CCOC(=O)c1nc(NC(=O)c2cc3cc(NC(=O)c4cc(NC(=O)CCCOc5cc6c(cc5OC)C(=O)N5CCC[C@H]5C=N6)cn4C)ccc3s2)cn1C [PP-B14, reference compound]
Result: < 0.125 µg/mL
